Consider the following compounds and their measured pIC50 readings.
target: GST-ALK5 (Homo sapiens); experiment: In-vitro (enzyme) kinase assay, 384-well flashplate (Example 36); format: biochemical; conditions: GST-ALK5, GST-SMAD2 substrate, 3 mM ATP, 30° C., 45 min; read-out: TβR activity (Example 36)
Sequence (P36897 34-503): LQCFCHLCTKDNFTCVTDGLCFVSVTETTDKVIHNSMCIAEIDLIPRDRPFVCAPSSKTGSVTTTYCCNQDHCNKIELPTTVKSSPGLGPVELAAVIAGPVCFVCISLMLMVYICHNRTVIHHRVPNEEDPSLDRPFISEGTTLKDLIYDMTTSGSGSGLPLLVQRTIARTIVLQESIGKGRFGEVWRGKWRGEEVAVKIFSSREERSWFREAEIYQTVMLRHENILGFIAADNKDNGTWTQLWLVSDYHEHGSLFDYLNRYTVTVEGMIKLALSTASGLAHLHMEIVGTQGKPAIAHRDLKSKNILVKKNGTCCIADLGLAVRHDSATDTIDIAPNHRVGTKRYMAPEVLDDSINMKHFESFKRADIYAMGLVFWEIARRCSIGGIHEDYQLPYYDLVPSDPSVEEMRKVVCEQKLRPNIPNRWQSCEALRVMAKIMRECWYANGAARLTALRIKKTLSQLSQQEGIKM
pIC50: −log10 of the molar value.

[[record]]
smiles_representation = "CN1CCN(c2cccc(-c3cncc(-c4cc(-c5cc(Cl)ccc5F)nc5ncccc45)c3)c2)CC1"
quantity_measured = "pIC50"
measured_value = "> 7.00"


// next item, pIC50 requested
*Q* # lookup: pIC50 of Fc1ccc(Cl)cc1-c1cc(-c2cncc(-c3cccc(OCCN4CCCC4)c3)c2)c2cccnc2n1
*A* > 7.00
